B1: VH:VL chains; a variant is named by its letters at X, in order (parent)
chain 1: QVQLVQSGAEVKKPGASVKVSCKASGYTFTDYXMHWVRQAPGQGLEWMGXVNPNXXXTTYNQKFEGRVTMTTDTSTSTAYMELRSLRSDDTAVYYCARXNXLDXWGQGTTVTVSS
chain 2: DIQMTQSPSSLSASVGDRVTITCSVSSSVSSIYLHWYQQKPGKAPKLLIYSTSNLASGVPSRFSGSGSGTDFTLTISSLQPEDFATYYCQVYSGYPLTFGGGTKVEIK

Variants of: B1
test: yeast display scFab, FACS + sequencing
outcomeMeasure: non-specific binding call

Reference set, count: 4
## Task Request the reported non-specific binding call associated with DEARNAGA
## Result no binding

## Task Request the reported non-specific binding call associated with YRGRGYSV
## Result binds

## Task Request the reported non-specific binding call associated with DAGGADVA
## Result no binding

## Task Request the reported non-specific binding call associated with YRGKGAVF
## Result binds

***
## Task Request the reported non-specific binding call associated with DTKRTAVA
## Result binds
